Test system: human fibroblast
Assay: Toxicity against human fibroblast
Assay type: cell-based
Examples of compounds with documented Toxicity human fibroblast follow.
value_kind: Toxicity human fibroblast (µM)

- compound: "Cc1ccc2cc3c(N)c4c(C)ccc(C)c4nc3nc2c1 [Compound 253]"
  value_kind: "Toxicity human fibroblast"
  measurement: 11.4
- compound: "O=C(Nc1cccc(C(F)(F)F)c1)c1cc(Cl)ccc1O [Compound 155]"
  value_kind: "Toxicity human fibroblast"
  measurement: 0.024
- compound: "Nc1ccc(-c2nc3ccc(Cc4ccc5nc(C6CCC(N)CC6)[nH]c5c4)cc3[nH]2)cc1 (stereo not shown) [DM262]"
  value_kind: "Toxicity human fibroblast"
  measurement: 11.4
- compound: "Cc1ccc2c(c1)c1cc(C)ccc1n2CC(O)CNC1CCCCC1 (stereo not shown) [Compound 380]"
  value_kind: "Toxicity human fibroblast"
  measurement: 4.03
